# experiment: RP, Merck Supelco Ascentis Express C18, 100 × 2.1 mm, 2 µm, 40 °C, 0.4 mL/min, estimated dead time 0.55 min; A: water + 0.1% formic acid, pH 3; B: acetonitrile + 0.1% formic acid, pH 3; gradient (min/%B) 0/5 2/5 17/99.9 20/99.9
# conditionDescription: stereoisomer not certain
Item-by-item account of LC retention time

compound: NC(Cc1c[nH]c2ccc(O)cc12)C(=O)O (configuration not stated) [5-HYDROXYTRYPTOPHAN]
LC retention time / min: 0.81
--
compound: O=C(O)Cc1ccc(O)cc1 [P-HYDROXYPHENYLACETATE]
LC retention time / min: 3.34
--
compound: CCCCCCCCCCCCCC(=O)O [MYRISTATE]
LC retention time / min: 14.2
--
compound: CCCCCCCCCCCCCCCCC(=O)O [HEPTADECANOATE]
LC retention time / min: 16.3
--
compound: CC(=O)NCCc1c[nH]c2ccc(O)cc12
LC retention time / min: 3.5
--
compound: CCCCCCCCCCCCCC(=O)OCC(O)CO (configuration not stated) [GLYCEROL-MYRISTATE]
LC retention time / min: 13.2
--
compound: O=C(O)CCCC(=O)C(=O)O [OXOADIPATE]
LC retention time / min: 0.707
--
compound: OCC(O)c1ccc(O)c(O)c1 (configuration not stated) [3,4-DIHYDROXYPHENYLGLYCOL]
LC retention time / min: 0.663
--
compound: CCCCCCCCC=CCCCCCCCC(=O)O [ELAIDATE]
LC retention time / min: 16
--
compound: CC1OC(n2cnc3c(N)ncnc32)C(O)C1O (configuration not stated)
LC retention time / min: 0.937
--
compound: CC1NCCc2cc(O)c(O)cc21 (configuration not stated)
LC retention time / min: 0.68
--
compound: CSc1ncnc2nc[nH]c12
LC retention time / min: 3.33
--
compound: Cc1cc2nc3c(=O)[nH]c(=O)nc-3n(CC(O)C(O)C(O)COP(=O)(O)OP(=O)(O)OCC3OC(n4cnc5c(N)ncnc54)C(O)C3O)c2cc1C (configuration not stated)
LC retention time / min: 3.63
--
compound: CC(=O)N1CCCC1C(=O)O (configuration not stated)
LC retention time / min: 1.39
--
compound: O=C(O)C(O)c1ccccc1 (configuration not stated) [MANDELATE]
LC retention time / min: 2.88
--
compound: O=C(O)CCCCC1SCC2NC(=O)NC21 (configuration not stated)
LC retention time / min: 4.11
--
compound: CC(=O)NC(CC(C)C)C(=O)O (configuration not stated)
LC retention time / min: 4.36

----------
# experiment: RP, Merck Supelco Ascentis Express C18, 100 × 2.1 mm, 2 µm, 40 °C, 0.2 mL/min, estimated dead time 1.1 min; A: water + 0.1% formic acid, pH 3; B: acetonitrile + 0.1% formic acid, pH 3; gradient (min/%B) 0/5 2/5 17/99.9 20/99.9
# conditionDescription: stereoisomer not certain

molecule: CC(CCC(=O)O)C1CCC2C3CCC4CC(O)CCC4(C)C3CCC12C (stereo unspecified) [LITHOCHOLATE]
readoutUnits: min
LC retention time: 14.4
--
molecule: Nc1nc2c(ncn2C2OC(CO)C(O)C2O)c(=O)[nH]1 (stereo unspecified)
readoutUnits: min
LC retention time: 1.36
--
molecule: CCCCCCCCCCCCCCCCC(=O)O [HEPTADECANOATE]
readoutUnits: min
LC retention time: 18.5
--
molecule: Nc1nc2c(ncn2C2CC(O)C(CO)O2)c(=O)[nH]1 (stereo unspecified)
readoutUnits: min
LC retention time: 1.44
--
molecule: NC(Cc1ccccc1)C(=O)O (stereo unspecified)
readoutUnits: min
LC retention time: 2.23
--
molecule: O=C(O)c1ccccc1[O-] [SALICYLATE]
readoutUnits: min
LC retention time: 5.3

----------
# experiment: RP, Merck Supelco Ascentis Express C18, 100 × 2.1 mm, 2 µm, 40 °C, 0.4 mL/min, estimated dead time 0.55 min; A: water + 0.1% formic acid, pH 3; B: acetonitrile + 0.1% formic acid, pH 3; gradient (min/%B) 0/5 2/5 17/99.9 20/99.9
# conditionDescription: stereoisomer not certain
We label by threshold. Values of LC retention time strictly beneath 2 min are true. Values of 2 min and up are false.

compound: C=C(CC(=O)O)C(=O)O [ITACONATE]
category: true
--
compound: CCCCCCCC(=O)O [CAPRYLATE]
category: false
--
compound: CC(C)(CO)C(O)C(=O)NCCC(=O)O (configuration not stated) [PANTOTHENATE]
category: true
--
compound: Cc1cc2nc3c(=O)[nH]c(=O)nc-3n(CC(O)C(O)C(O)CO)c2cc1C (configuration not stated) [RIBOFLAVIN]
category: false
--
compound: NC(=O)[C@@H](N)Cc1c[nH]c2ccccc12 [L-TRYPTOPHANAMIDE]
category: true
--
compound: CSCCC(O)C(=O)O (configuration not stated) [2-HYDROXY-4-(METHYLTHIO)BUTANOATE]
category: true
--
compound: O=C(O)c1ccnc2ccccc12 [4-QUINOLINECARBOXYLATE]
category: true
--
compound: Cn1c(=O)c2[nH]cnc2n(C)c1=O [THEOPHYLLINE]
category: false
--
compound: O=C(O)c1cc(=O)c2ccccc2[nH]1 [KYNURENATE]
category: false
--
compound: O=C(O)C(O)Cc1ccc(O)cc1 (configuration not stated) [HYDROXYPHENYLLACTATE]
category: false
--
compound: CCCCCCCCCC(=O)O [DECANOATE]
category: false
--
compound: O=C([O-])Cc1ccccc1 [PHENYLACETATE]
category: false
--
compound: CCCCCCSCC(NC(=O)CCC(N)C(=O)O)C(=O)NCC(=O)O (configuration not stated) [S-HEXYL-GLUTATHIONE]
category: false
--
compound: Cc1c[nH]c(=O)[nH]c1=O [THYMINE]
category: true
--
compound: CCCCCCCCC=CCCCCCCCC(=O)O [ELAIDATE]
category: false
--
compound: CC(=O)Oc1ccccc1 [PHENYL ACETATE]
category: false
--
compound: c1ccc2ncccc2c1 [QUINOLINE]
category: false
--
compound: CC(=O)Oc1cccc(O)c1 [RESORCINOL MONOACETATE]
category: false
--
compound: O=c1[nH]c(=O)c2nccnc2[nH]1 [2,4-DIHYDROXYPTERIDINE]
category: true
--
compound: CC(O)c1ccccc1 (configuration not stated) [1-PHENYLETHANOL]
category: false
--
compound: NC(Cc1ccccc1)C(=O)O (configuration not stated) [PHENYLALANINE]
category: true
--
compound: O=C(O)c1cccc(O)c1 [3-HYDROXYBENZOATE]
category: false
--
compound: CCCCCCCCCCCC=CCCCCC(=O)[O-] [PETROSELINATE]
category: false
--
compound: CNCCc1c[nH]c2ccccc12 [N-METHYLTRYPTAMINE]
category: false
--
compound: CC(C)=CCCC(C)C1CCC2C3CC=C4CC(O)CCC4(C)C3CCC12C (configuration not stated) [DESMOSTEROL]
category: false
--
compound: O=C(O)c1ccc2ccccc2n1 [2-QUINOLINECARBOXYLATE]
category: false
--
compound: CC(C)CCCC(C)C1CCC2C3=CC=C4CC(O)CCC4(C)C3CCC21C (configuration not stated) [7-DEHYDROCHOLESTEROL]
category: false
--
compound: CC12CCC(=O)C=C1CCC1C2CCC2(C)C1CCC2(O)C(=O)CO (configuration not stated) [CORTEXOLONE]
category: false
--
compound: CC12CCC3c4ccc(O)cc4CCC3C1CCC2O (stereo not drawn) [ESTRADIOL-17ALPHA]
category: false
--
compound: O=CCc1c[nH]c2ccccc12 [INDOLEACETALDEHYDE]
category: false
--
compound: CC12CCC(=O)C=C1CCC1C2C(O)CC2(C)C(C(=O)CO)CCC12 (configuration not stated) [CORTICOSTERONE]
category: false
--
compound: CC(=O)NCCc1c[nH]c2ccc(O)cc12 [N-ACETYLSEROTONIN]
category: false
--
compound: O=C(O)C(O)COP(=O)(O)O (configuration not stated) [3-PHOSPHOGLYCERATE]
category: true
--
compound: O=C([O-])CCCCCCC(=O)[O-] [SUBERATE]
category: false
--
compound: NCCc1cc(O)c(O)cc1O [6-HYDROXYDOPAMINE]
category: true

----------
# experiment: RP, Merck Supelco Ascentis Express C18, 100 × 2.1 mm, 2 µm, 40 °C, 0.4 mL/min, estimated dead time 0.55 min; A: water + 0.1% formic acid, pH 3; B: acetonitrile + 0.1% formic acid, pH 3; gradient (min/%B) 0/5 2/5 17/99.9 20/99.9
# conditionDescription: stereoisomer not certain

compound: CC1OC(n2cnc3c(N)ncnc32)C(O)C1O (centres undefined) [5'-DEOXYADENOSINE]
LC retention time / min: 0.95
//
compound: O=C(O)c1ccc(O)c(O)c1 [3,4-DIHYDROXYBENZOATE]
LC retention time / min: 1.53
//
compound: Oc1ccccc1O [PYROCATECHOL]
LC retention time / min: 1.55
//
compound: CC(C(=O)O)C(=O)O [METHYLMALONATE]
LC retention time / min: 0.863
